test-method-notes: PET-CT tumour retention of the tracer after ICI treatment
Format: in vivo, BALB/c mice
experimental-parameters: BALB/c, mouse, CT26 tumour, iv, 10 MBq, total radioactivity, Treatment non-responders (TNR); PET-CT day 12, 20 min static from 60 min post-injection, ~10 MBq i.v.; mean ± SD
Bridges are numbered along the chain shown (N, C = ends). Where no end group is shown, it is not given here. The star is where a group is joined. NOTA = O=C(O)CN1CCN(CC(=O)O)CCN(CC(=O)*)CC1
property: tissue uptake (%ID/g)
Report the figure in %ID/g without appending any unit label.

What value of tissue uptake has been reported for the following substance? {NOTA}-RTCESASHKFEGPCLRDSNCANVCKTEGFHGGKCKGLRRRCFCTKHC (disulfide 3-47, 14-34, 20-41, 24-43) [[^18F]AlF-NOTA-KCNA3P]
0.53
